Tested on: MDA-MB-468 breast
Experiment: NCI-60 one-dose screen, 48 h
Details: 10 µM unless noted
About 83,000 compounds went through this panel and 20% of them were active in at least one assay; those are over-represented in the sample as a whole. Activity calls are given as the source filed them. Rule for the calls: active = growth percent below 10; inactive = the rest.
Pick one: Yes = active, No = inactive

Exercise: Which outcome did this test record for the compound CN(CCC#N)c1ccc(/C=C(\C#N)c2cccc(C(F)(F)F)c2)cc1 ?
Solution: No

Exercise: Outcome logged for COc1cc(OC)c2sc(-c3ccc(-n4cncc4-c4ccc(N)cc4)cc3)nc2c1 in this assay:
Solution: No

Exercise: Please let me know the test result on file for COc1cc(C2=NN(C=O)C(c3cccc(Nc4ccnc5cc(Cl)ccc45)c3)C2)cc(OC)c1OC (centres undefined) .
Solution: No

Exercise: Assay result, entry c1ccc2c(N3CCCCC3)ncnc2c1 — outcome?
Solution: No

Exercise: I would be grateful if you could indicate the recorded call for Cc1ccc(S(=O)(=O)OC[C@]23CCC(C)(C)C[C@H]2C2=CC[C@@H]4[C@@]5(C)CCCNC(C)(C)[C@@H]5CC[C@@]4(C)[C@]2(C)CC3)cc1 .
Solution: Yes

Exercise: # outcome recorded in this test, key = CCS(=O)(=O)Nc1cccc(Nc2c3cccc(C)c3nc3c(C)cccc23)c1OC
Solution: No

Exercise: Kindly provide the recorded test outcome for the following compound: O=[N+]([O-])c1ccc2ncccc2c1Cl
Solution: Yes

Exercise: Can you look up the reported call for C#CCOC(=O)/C=C/c1cn(-c2ccccc2)nc1-c1ccc(OC)cc1 for me?
Solution: No

Exercise: Please indicate how the test categorized CCOC(=O)C1=C(c2ccccc2)N=c2s/c(=C/c3ccc(Br)cc3)c(=O)n2C1c1ccc(O)cc1 (centres undefined) .
Solution: No

====

Test system: MDA-MB-468 breast
Test: NCI-60 one-dose screen, 48 h
Details: 10 µM unless noted
This is part of a sample that, as a whole, favours compounds with a hit. Of some 83,000 tested, about 20% had one in any assay. The source made the active and inactive calls. Rule for the calls: active = growth percent below 10; inactive = the rest.
Please answer using one outcome listed in active, inactive

Exercise: Call for entry CCN(CC)c1ccc2nc3ccc(=[N+](CC)CC)cc-3oc2c1 :
Solution: active

Exercise: Look up the recorded call for Nc1nc2c(c(=O)[nH]1)C1(C(=O)Nc3ccccc31)c1c(nc(N)[nH]c1=O)N2 in this test.
Solution: inactive

Exercise: Give the logged outcome of this assay for the following compound: Cn1nc(C(F)(F)F)c(-c2cc(C(F)(F)F)cc(C(F)(F)F)c2)c1-c1ccc(OCc2ccc(Cl)cc2)cc1O
Solution: active

Exercise: Could you check what this test reported for CC1C(=O)c2ccccc2CC1C(=O)O (stereo not given) ?
Solution: inactive

Exercise: Dear colleague, could you share the recorded outcome for COc1cc(/C=C/c2c(C(C)=O)c(C)nc3ccccc23)cc(OC)c1OC when you have a moment?
Solution: active

====

System: MDA-MB-468 breast
Assay: NCI-60 one-dose screen, 48 h
Conditions: 10 µM unless noted
Compounds without any hit were thinned out: in the full panel of roughly 83,000, 20% have a hit. The source made the active and inactive calls. The calls were made as follows: active = growth percent below 10; inactive = the rest.
Your answer must be one of the following: T = active, F = inactive

Exercise: Recorded call for CC1(n2nnnc2N2CCCN(c3ncccc3N)CC2)CCC1 ?
Solution: F

Exercise: Status in this test for Cc1cc(NC(=O)c2ccc(C)c(Nc3nccc(-c4cccnc4)n3)c2)cc(-n2cnc(C)c2)c1 ?
Solution: T

Exercise: I'd appreciate the recorded outcome for C=CCOc1cccc(/C=C2\SC(=Nc3ccc(O)cc3)NC2=O)c1 from this test.
Solution: T

Exercise: Would you mind telling me which call this test gave O=C(Nc1ccc(-c2nc3cc4ccccc4cc3[nH]2)cc1)c1cccc(Br)c1 ?
Solution: F

Exercise: Look up the recorded call for COc1ccc(N2CCN(C3=C(Cl)C(=O)C(C)=C(C)C3=O)CC2)cc1 in this test.
Solution: F

Exercise: Tell me the assay call for COc1ccc(/C(=C\c2cc(OC)c(OC)c(OC)c2)C(=O)N2CCCNCC2)cc1 please.
Solution: F

Exercise: Returns: the outcome recorded for O=C(CC1(O)C(=O)Nc2c(Cl)ccc(Cl)c21)c1ccc(Cl)cc1Cl (stereo not given) in this assay.
Solution: F

Exercise: Test call, this compound: CN1CCC(CNc2cc(C3(C(=O)Nc4cc(C(=O)Nc5ccc(Cl)c(C(F)(F)F)c5)ccc4F)CC3)ncn2)CC1
Solution: T

Exercise: # outcome recorded in this test, key = Brc1cccc(-c2cc(-c3ccc4c(c3)OCCCO4)[nH]n2)c1
Solution: F

Exercise: How did this test come out for CC1(C(=O)O)NC(C(=O)O)Cc2c1[nH]c1ccccc21 (stereo not given) ?
Solution: F

Origin of values: PubChem BioAssay (NCI)
